target: Nucleic Acid; experiment: Binding affinity to D22 ssDNA aptamer; assay type: nucleic-acid assay
Property: Kd (nM)
Give bare numbers, in nM.

[in] What value of Kd has been recorded for this entry: O=C(O)Cc1ccccc1Nc1c(Cl)cccc1Cl [DICLOFENAC]
[out] 166

The reported measurements were obtained from ChEMBL document CHEMBL1152509.
